- study target: T1, mSlo1/β4(N123R) channel (mouse | human, UniProt Q08460 1-1209; Q86W47 1-210, N123R)
- T1 construct: mSlo1, BK channel α subunit (KCNMA1) of mouse, full-length cDNA, GenBank HQ221747.1; human BK channel β4 subunit (KCNMB4), full-length cDNA, GenBank AF207992.1; source: HEK293, transiently co-transfected (pcDNA3.1(+)), in excised membrane patches; copies: 4 + 4
- T1 sequence (Q08460 whole entry, chain 1 of 2): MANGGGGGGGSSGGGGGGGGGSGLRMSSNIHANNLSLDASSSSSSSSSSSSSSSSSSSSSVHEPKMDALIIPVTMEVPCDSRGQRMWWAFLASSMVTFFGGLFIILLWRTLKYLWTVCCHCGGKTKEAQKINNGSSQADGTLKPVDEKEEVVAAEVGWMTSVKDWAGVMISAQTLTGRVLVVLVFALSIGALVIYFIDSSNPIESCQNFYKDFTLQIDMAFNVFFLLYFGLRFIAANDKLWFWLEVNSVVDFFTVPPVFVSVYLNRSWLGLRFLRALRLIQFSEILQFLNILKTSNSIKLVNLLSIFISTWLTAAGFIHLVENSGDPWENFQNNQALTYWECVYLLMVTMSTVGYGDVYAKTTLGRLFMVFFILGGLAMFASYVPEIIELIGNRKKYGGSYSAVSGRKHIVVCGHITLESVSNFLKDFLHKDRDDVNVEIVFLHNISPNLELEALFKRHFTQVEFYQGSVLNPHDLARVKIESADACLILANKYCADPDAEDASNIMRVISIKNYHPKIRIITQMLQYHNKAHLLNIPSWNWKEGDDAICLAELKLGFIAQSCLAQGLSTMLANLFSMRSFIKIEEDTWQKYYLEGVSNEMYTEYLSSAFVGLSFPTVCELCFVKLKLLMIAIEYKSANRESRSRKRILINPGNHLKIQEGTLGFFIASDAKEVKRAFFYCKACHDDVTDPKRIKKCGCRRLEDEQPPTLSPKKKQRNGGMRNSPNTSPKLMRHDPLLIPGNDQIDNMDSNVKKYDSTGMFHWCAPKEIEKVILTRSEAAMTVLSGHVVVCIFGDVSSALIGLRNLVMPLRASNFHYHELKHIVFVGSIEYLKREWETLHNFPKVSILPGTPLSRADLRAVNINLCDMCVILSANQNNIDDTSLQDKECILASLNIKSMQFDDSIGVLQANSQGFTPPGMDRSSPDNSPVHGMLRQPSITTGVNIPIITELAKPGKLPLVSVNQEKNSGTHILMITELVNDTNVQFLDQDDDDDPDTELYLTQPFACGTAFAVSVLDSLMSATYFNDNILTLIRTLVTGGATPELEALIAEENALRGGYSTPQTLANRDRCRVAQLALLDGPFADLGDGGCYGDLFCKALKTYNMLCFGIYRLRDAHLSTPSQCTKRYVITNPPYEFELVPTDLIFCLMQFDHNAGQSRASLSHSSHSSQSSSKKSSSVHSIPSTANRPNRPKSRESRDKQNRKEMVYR
- T1 sequence (Q86W47 whole entry N123R, chain 2 of 2): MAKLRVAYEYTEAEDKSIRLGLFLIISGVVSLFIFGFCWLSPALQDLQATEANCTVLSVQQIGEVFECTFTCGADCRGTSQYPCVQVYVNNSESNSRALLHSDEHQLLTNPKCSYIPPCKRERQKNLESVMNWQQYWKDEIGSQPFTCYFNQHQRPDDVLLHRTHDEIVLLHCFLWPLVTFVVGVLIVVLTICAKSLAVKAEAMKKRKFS
- assay method text: patch-clamp electrophysiology (time course of current block); outside-out patches of transfected HEK293 cells perfused with 1 μM ChTX; steps to +100 mV, intracellular 10 μM Ca2+; τon and τoff fitted to a first order bimolecular reaction scheme; KD = [ChTX]/((τoff/τon) − 1)
- measurement setup: one partner purified
pKd: −log10 of the molar value.

binder	pKd
QFTNVSCTTSKECWSVCQRLHNTSRGKCMNKKCRCYS (charybdotoxin (ChTX), scorpion toxin; also called ChTX; source: bought: Sigma-Aldrich (Art. No. C7802)) [Charybdotoxin]	6.48
